# targetOrTestSystem: human renin (Homo sapiens, UniProt P00797)
# Construct: A human plasma pool is used as the source of both the substrate (angiotensinogen) and the enzyme (renin)
# Sequence (P00797 67-406): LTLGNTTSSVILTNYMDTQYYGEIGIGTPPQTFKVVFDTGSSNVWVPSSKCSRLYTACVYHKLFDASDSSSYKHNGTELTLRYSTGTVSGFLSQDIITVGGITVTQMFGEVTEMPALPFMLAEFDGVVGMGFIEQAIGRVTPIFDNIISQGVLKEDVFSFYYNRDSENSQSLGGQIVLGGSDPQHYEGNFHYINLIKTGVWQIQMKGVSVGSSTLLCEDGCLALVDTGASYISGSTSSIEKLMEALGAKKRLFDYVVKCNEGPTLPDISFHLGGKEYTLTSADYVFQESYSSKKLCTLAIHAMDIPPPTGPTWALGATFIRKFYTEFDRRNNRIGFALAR
# experimentDescription: plasma renin assay (inhibition of human renin; angiotensin I generated, measured by radioimmunoassay)
# experimentalParameters: human plasma pool, pH 6.0, 2 h incubation at 37°
testReadout: IC50 (nM)

Worked cases, answers included:
>  <compound>
CC(C)C[C@H](O)[C@H](O)[C@H](CC1CCCCC1)NC(=O)[C@@H](CC(=O)N(Cc1ncc[nH]1)CC1(O)CCCCC1)CC1CC1

>  <IC50 (nM)>
80

$$$$
>  <compound>
CC(C)C[C@H](O)[C@H](O)[C@H](CC1CCCCC1)NC(=O)[C@@H](CC(=O)N(CC1CCCCC1)CC1(O)CCCCC1)CC1CC1

>  <IC50 (nM)>
79

$$$$
>  <compound>
CC(C)C[C@H](O)[C@H](O)[C@H](CC1CCCCC1)NC(=O)[C@@H](CC(=O)N(CC1CCCCCC1)CC(C)(C)O)Cc1cscn1

>  <IC50 (nM)>
5

$$$$
>  <compound>
CC(C)C[C@H](O)[C@H](O)[C@H](CC1CCCCC1)NC(=O)[C@@H](CC(=O)N(CC(=O)N(C)C)CC1(O)CCCCC1)Cc1c[nH]cn1

>  <IC50 (nM)>
1.8

$$$$
>  <compound>
CC(C)C[C@H](O)[C@H](O)[C@H](CC1CCCCC1)NC(=O)[C@@H](CC(=O)NCC(O)c1ccccn1)CC1CC1 (mixture of isomers)

>  <IC50 (nM)>
170

$$$$

a. CC(C)C[C@H](O)[C@H](O)[C@H](CC1CCCCC1)NC(=O)[C@@H](CC(=O)N(Cc1ccccc1)CC(C)(C)O)CC1CC1
b. CC(C)C[C@H](O)[C@H](O)[C@H](CC1CCCCC1)NC(=O)[C@@H](CC(=O)N[C@@H](CO)Cc1ccccc1)CC1CC1
c. CC(C)C[C@H](O)[C@H](O)[C@H](CC1CCCCC1)NC(=O)[C@@H](CC(=O)N(CC(=O)N(C)CCc1ccccn1)CC1(O)CCCCCC1)Cc1csc(N)n1
d. CC(C)C[C@H](O)[C@H](O)[C@H](CC1CCCCC1)NC(=O)[C@@H](CC(=O)N(CC(=O)N(C)C)CC1(O)CCCCCCC1)Cc1csc(N)n1
e. CCC(CC)CN(CC(C)(C)O)C(=O)C[C@@H](Cc1csc(N)n1)C(=O)N[C@@H](CC1CCCCC1)[C@@H](O)[C@@H](O)CC(C)C
stdin: Form: Sort by [IC50] Order [ ascending ] When ranking, write the labels in the order the request describes.
stdout: d, c, e, b, a
(d: 1 nM, c: 1.5 nM, e: 15 nM, b: 89 nM, a: 130 nM)
